# testDetails: in vivo
# assayContext: rat, ip
Counter-ions that a name gives are not always drawn.
experimentalReadout: LD50 (mg/kg)

INSERT INTO results (compound, recordedresult) VALUES
  ('COc1ccc2c3c1O[C@H]1[C@@H](O)C=C[C@H]4[C@@H](C2)N(C)CC[C@@]341 [Compound 4, Codeine.HCl, reference compound]', 72.4),
  ('Cc1nc(Cn2cnc3c2c(=O)[nH]c(=O)n3C)no1', 700);
